experimentalTarget: Receptor tyrosine-protein kinase erbB-2 (Homo sapiens)
measurementNotes: reducers of endogenous Her2 protein level, primary screen, SKBR3 breast tumor cells, AlphaScreen, ATP viability (AID 461);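 note: lower value means less Her2 protein in the cells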
testSettings: 18-24 h, at 10 µM, hits give low values
parameter: Her2 level (%)
Your answer should be a plain number; it is taken to be in %.

Here is how some molecules turned out for Her2 level.
[[record]]
molecule = "Cc1ccc2cc(C#N)c(N3CCCC3)nc2c1C"
parameter = "Her2 level"
measuredresult = 70.5

[[record]]
molecule = "COc1ccc(-c2ccc(-c3nnc(-c4ccncc4)o3)cc2)cc1"
parameter = "Her2 level"
measuredresult = 103

[[record]]
molecule = "CCOC(=O)c1ccc(N2C(=O)C3CC=CCC3C2=O)cc1 (configuration not stated)"
parameter = "Her2 level"
measuredresult = 116

[[record]]
molecule = "CCC(C)N=C1SCC(C)(/C=N/O)S1 (configuration not stated)"
parameter = "Her2 level"
measuredresult = 88.5


# context switch: different molecule, same Her2 level
*Q* Which value of Her2 level has been reported for COCCN(C(=O)Cn1nnc2ccccc21)C(C(=O)NC1CCCC1)c1cc(OC)ccc1OC (configuration not stated) in the records?
*A* 106
